tested on: phosphorylation of Serine 473 in Akt; experiment: In Vitro Phospho-Ser473 Akt Assay in MDA-MB-468 cells; format: cell-based; conditions: Homo sapiens, MDA-MB-468, read-out: IC50 values against mTOR, phospho-Ser473 Akt assay, MDA-MB-468 cells
Would you mind telling me the reported IC50 of each entry?

Look at this compound and give its reported IC50. Cc1ccc(-c2ccc3c(N4CCOC[C@@H]4C)nc(N4CCOC[C@@H]4C)nc3n2)cc1
< 100 nM

Look at this compound and give its reported IC50. COc1ccc(-c2ccc3c(N4CCOC[C@@H]4C)nc(N4CCCC4)nc3n2)cc1CO [Example 18q]
< 100 nM

Look at this compound and give its reported IC50. COc1ccc(-c2ccc3c(N4CCOC[C@@H]4C)nc(N4CCC[C@@H](O)C4)nc3n2)cc1CO [Example 18bk]
< 100 nM

Look at this compound and give its reported IC50. C[C@H]1COCCN1c1nc(N2CCOC[C@@H]2C)c2ccc(-c3cccc(C(=O)NCCO)c3)nc2n1
< 100 nM

Look at this compound and give its reported IC50. COc1ccc(-c2ccc3c(N4CCOC[C@@H]4C)nc(N4CCC[C@H](O)C4)nc3n2)cc1CO [Example 18bj]
< 100 nM

Look at this compound and give its reported IC50. C[C@H]1COCCN1c1nc(N2CCOC[C@@H]2C)c2ccc(-c3ccc(N4CCOCC4)nc3)nc2n1
< 300 nM

Look at this compound and give its reported IC50. C[C@H]1COCCN1c1nc(N2CCOC[C@@H]2C)c2ccc(-c3cccc(CO)c3)nc2n1
< 100 nM

Look at this compound and give its reported IC50. COC(=O)c1cc(-c2ccc3c(N4CCOC[C@@H]4C)nc(N4CCOC[C@@H]4C)nc3n2)ccc1OC
< 100 nM

Look at this compound and give its reported IC50. COCCNCc1cc(-c2ccc3c(N4CCOC[C@@H]4C)nc(N4CCOC[C@@H]4C)nc3n2)ccc1OC
< 100 nM

Look at this compound and give its reported IC50. COc1ccc(-c2ccc3c(N4CCOC[C@@H]4C)nc(N4CCOC(c5ccccc5)C4)nc3n2)cc1CO (stereo partly drawn) [Example 18bf]
< 300 nM

Look at this compound and give its reported IC50. COCCOc1nc(N2CCOC[C@@H]2C)c2ccc(-c3ccc(OC)c(CO)c3)nc2n1 [Example 18cx]
< 300 nM

Look at this compound and give its reported IC50. COc1ccc(-c2ccc3c(N4CCOC[C@@H]4C)nc(N(C)CCO)nc3n2)cc1CO [Example 18cr]
< 100 nM

Look at this compound and give its reported IC50. C[C@H]1COCCN1c1nc(N2CCOC[C@@H]2C)c2ccc(-c3cccc(C(N)=O)c3)nc2n1
< 100 nM

Look at this compound and give its reported IC50. COc1ccc(-c2ccc3c(N4CCOC[C@@H]4C)nc(N4CCCC(C)C4)nc3n2)cc1CO (stereo partly drawn) [Example 18i]
< 100 nM

Look at this compound and give its reported IC50. COc1ccc(-c2ccc3c(N4CCOC[C@@H]4C)nc(N4CCOC[C@@H]4C)nc3n2)cc1CNCc1cccs1
< 300 nM

Look at this compound and give its reported IC50. COc1ccc(-c2ccc3c(N4CCOC[C@@H]4C)nc(N4CCCC[C@H]4C)nc3n2)cc1CO [Example 18a]
< 100 nM

Look at this compound and give its reported IC50. C[C@H]1COCCN1c1nc(N2CCOC[C@@H]2C)c2ccc(-c3cccc(C(=O)Nc4cc[nH]n4)c3)nc2n1
< 300 nM

Look at this compound and give its reported IC50. COc1ccc(-c2ccc3c(N4CCOC[C@@H]4C)nc(N4CCC(c5ccccc5)CC4)nc3n2)cc1CO [Example 18be]
< 100 nM

Look at this compound and give its reported IC50. COc1ccc(-c2ccc3c(N4CCOC[C@@H]4C)nc(-c4cccnc4)nc3n2)cc1CO [Example 19j]
< 100 nM

Look at this compound and give its reported IC50. C[C@H]1COCCN1c1nc(N2CCOC[C@@H]2C)c2ccc(-c3cccc(CN(C)C(=O)C(F)(F)F)c3)nc2n1
< 300 nM

Look at this compound and give its reported IC50. C[C@H]1COCCN1c1nc(N2CCOC[C@@H]2C)c2ccc(-c3cccc(CNC(=O)C4CC4)c3)nc2n1
< 300 nM

Look at this compound and give its reported IC50. C[C@H]1COCCN1c1nc(N2CCOC[C@@H]2C)c2ccc(-c3cccc(C(=O)NCCF)c3)nc2n1
< 300 nM

Look at this compound and give its reported IC50. COc1ccc(-c2ccc3c(N4CCOC[C@@H]4C)nc(N4CCC(c5cccc(O)c5)CC4)nc3n2)cc1CO [Example 18f]
< 100 nM

Look at this compound and give its reported IC50. COC(=O)c1cccc(-c2ccc3c(N4CCOC[C@@H]4C)nc(N4CCOC[C@@H]4C)nc3n2)c1
< 100 nM

Look at this compound and give its reported IC50. COCCNCc1cc(-c2ccc3c(N4CCOC[C@@H]4C)nc(N4CCOC[C@@H]4C)nc3n2)ccc1F
< 300 nM

Look at this compound and give its reported IC50. COc1ccc(-c2ccc3c(N4CCOC[C@@H]4C)nc(Nc4ccccn4)nc3n2)cc1CO [Example 18p]
< 300 nM

Look at this compound and give its reported IC50. COc1ccc(-c2ccc3c(N4CCOC[C@@H]4C)nc(N4CCC(C(F)(F)F)CC4)nc3n2)cc1CO [Example 18af]
< 300 nM

Look at this compound and give its reported IC50. COc1ccc(-c2ccc3c(N4CCOC[C@@H]4C)nc(N4CCCC(CN(C)C)C4)nc3n2)cc1CO (stereo partly drawn) [Example 18as]
< 300 nM

Look at this compound and give its reported IC50. C[C@H]1COCCN1c1nc(N2CCOC[C@@H]2C)c2ccc(-c3ccc(F)c(CNCC4CC4)c3)nc2n1
< 100 nM

Look at this compound and give its reported IC50. COc1ccc(-c2ccc3c(N4CCOC[C@@H]4C)nc(N4CCNC(=O)C4C)nc3n2)cc1CO (stereo partly drawn) [Example 18co]
< 100 nM

----------
system: phosphorylation of Serine 473 in Akt; test: In Vitro Phospho-Ser473 Akt Assay in MDA-MB-468 cells; format: cell-based; conditions: Homo sapiens, MDA-MB-468, read-out: IC50 values against mTOR, phospho-Ser473 Akt assay, MDA-MB-468 cells
Would you mind telling me the reported IC50 of each entry?

Look at this compound and give its reported IC50. Cc1ccc(-c2cnc3c(N4CCOC[C@@H]4C)nc(N4CCOC[C@@H]4C)nc3n2)cc1 [Example 12c]
< 100 nM

Look at this compound and give its reported IC50. COc1ccc(-c2ccc3c(N4CCOC[C@@H]4C)nc(N4CCOC[C@@H]4C)nc3n2)cc1CNC(C)C [Example 4am]
< 100 nM

Look at this compound and give its reported IC50. CNC(=O)c1cc(-c2ccc3c(N4CCOC[C@@H]4C)nc(N4CCOC[C@@H]4C)nc3n2)ccc1OC [Example 3ad]
< 100 nM

Look at this compound and give its reported IC50. COc1ccc(-c2ccc3c(N4CCOC[C@@H]4C)nc(N4CCOC[C@@H]4C)nc3n2)cc1CNC1CCCCC1C (stereo partly drawn) [Example 4aw]
< 100 nM

Look at this compound and give its reported IC50. COc1ccc(-c2ccc3c(N4CCOC[C@@H]4C)nc(N4CCCCC(N)C4)nc3n2)cc1CO (stereo partly drawn) [Example 18e]
< 300 nM

Look at this compound and give its reported IC50. COc1ccc(-c2ccc3c(N4CCOC[C@@H]4C)nc(N4CCCCC4CO)nc3n2)cc1CO (stereo partly drawn) [Example 18bm]
< 100 nM

Look at this compound and give its reported IC50. COCCNCc1cccc(-c2ccc3c(N4CCOC[C@@H]4C)nc(N4CCOC[C@@H]4C)nc3n2)c1 [Example 4o]
< 100 nM

Look at this compound and give its reported IC50. C[C@H]1COCCN1c1nc(N2CCOC[C@@H]2C)c2ccc(-c3ccc(CNC4CCOCC4)o3)nc2n1 [Example 7f]
< 100 nM

Look at this compound and give its reported IC50. COc1ccc(-c2ccc3c(N4CCOC[C@@H]4C)nc(N4CCOC[C@@H]4C)nc3n2)cc1F [Example 1bs]
< 100 nM

Look at this compound and give its reported IC50. CNCc1cc(-c2ccc3c(N4CCOC[C@@H]4C)nc(N4CCOC[C@@H]4C)nc3n2)ccc1F [Example 4x]
< 100 nM

Look at this compound and give its reported IC50. COc1ccc(-c2ccc3c(N4CCOC[C@@H]4C)nc(N4C(C)CCC4C)nc3n2)cc1CO (stereo partly drawn) [Example 18bg]
< 100 nM

Look at this compound and give its reported IC50. C[C@H]1COCCN1c1nc(N2CCOC[C@@H]2C)c2ccc(-c3cccc(CN)c3)nc2n1 [Example 4i]
< 100 nM

Look at this compound and give its reported IC50. C[C@H]1COCCN1c1nc(N2CCOC[C@@H]2C)c2ccc(-c3ccc(CNCC4CC4)o3)nc2n1 [Example 7g]
< 100 nM

Look at this compound and give its reported IC50. COc1ccc(-c2ccc3c(N4CCOC[C@@H]4C)nc(N4CCOC[C@@H]4C)nc3n2)cc1CNCCC(C)C [Example 4at]
< 100 nM

Look at this compound and give its reported IC50. CC(=O)NCc1ccc(-c2ccc3c(N4CCOC[C@@H]4C)nc(N4CCOC[C@@H]4C)nc3n2)cc1 [Example 5q]
< 100 nM

Look at this compound and give its reported IC50. COc1ccc(-c2ccc3c(N4CCOC[C@@H]4C)nc(N4CC[C@@H](O)C4)nc3n2)cc1CO [Example 18bn]
< 100 nM

Look at this compound and give its reported IC50. COc1ccc(-c2ccc3c(N4CCOC[C@@H]4C)nc(-n4cnc(C)c4C=O)nc3n2)cc1CO [Example 18ba]
< 100 nM

Look at this compound and give its reported IC50. COc1ccc(C(=O)C2CCN(c3nc(N4CCOC[C@@H]4C)c4ccc(-c5ccc(OC)c(CO)c5)nc4n3)CC2)cc1 [Example 18w]
< 300 nM

Look at this compound and give its reported IC50. CNC(=O)c1ccc(-c2ccc3c(N4CCOC[C@@H]4C)nc(N4CCOC[C@@H]4C)nc3n2)cc1F [Example 1cv]
< 300 nM

Look at this compound and give its reported IC50. C[C@@H]1CN(c2nc(N3CCOC[C@@H]3C)c3ncc(-c4ccccc4)nc3n2)C[C@H](C)O1 [Example 12a]
< 100 nM

Look at this compound and give its reported IC50. C[C@H]1COCCN1c1nc(N2CCOC[C@@H]2C)c2ccc(-c3ccc(F)c(NS(C)(=O)=O)c3)nc2n1 [Example 1bk]
< 300 nM

Look at this compound and give its reported IC50. C[C@H]1COCCN1c1nc(N2CCOC[C@@H]2C)c2ccc(-c3ccc(OCCN(C)C)nc3)nc2n1 [Example 13b]
< 300 nM

Look at this compound and give its reported IC50. C[C@H]1COCCN1c1nc(N2CCOC[C@@H]2C)c2ccc(-c3ccc(F)c(CN4CC[C@H](O)C4)c3)nc2n1 [Example 4ak]
< 100 nM

Look at this compound and give its reported IC50. COc1ccc(-c2ccc3c(N4CCOC[C@@H]4C)nc(NC(C)CC(C)C)nc3n2)cc1CO (stereo partly drawn) [Example 18av]
< 300 nM

Look at this compound and give its reported IC50. COc1ccc(-c2ccc3c(N4CCOC[C@@H]4C)nc(NCCF)nc3n2)cc1CO [Example 18bt]
< 300 nM

Look at this compound and give its reported IC50. C[C@H]1COCCN1c1nc(N2CCOC[C@@H]2C)c2ccc(-c3cccc(NS(C)(=O)=O)c3)nc2n1 [Example 1at]
< 100 nM

Look at this compound and give its reported IC50. COc1ccc(-c2ccc3c(N4CCOC[C@@H]4C)nc(N4CC[C@H](O)C4)nc3n2)cc1CO [Example 18ab]
< 300 nM

Look at this compound and give its reported IC50. C[C@H]1COCCN1c1nc(N2CCOC[C@@H]2C)c2ccc(-c3cccc(CNCCO)c3)nc2n1 [Example 4h]
< 100 nM

Look at this compound and give its reported IC50. COCC(=O)NCc1cccc(-c2ccc3c(N4CCOC[C@@H]4C)nc(N4CCOC[C@@H]4C)nc3n2)c1 [Example 5b]
< 300 nM

Look at this compound and give its reported IC50. C[C@H]1COCCN1c1nc(N2CCOC[C@@H]2C)c2ccc(-c3ccc(CN4CC[C@@H](O)C4)cc3)nc2n1 [Example 4c]
< 100 nM

Origin of measurements: patent US9102670B2
